B1: Golgi resident protein GCP60 (Homo sapiens), Q9H3P7 (parent)
chain: MAAVLNAERLEVSVDGLTLSPDPEERPGAEGAPLLPPPLPPPSPPGSGRGPGASGEQPEPGEAAAGGAAEEARRLEQRWGFGLEELYGLALRFFKEKDGKAFHPTYEEKLKLVALHKQVLMGPYNPDTCPEVGFFDVLGNDRRREWAALGNMSKEDAMVEFVKLLNRCCHLFSTYVASHKIEKEEQEKKRKEEEERRRREEEERERLQKEEEKRRREEEERLRREEEERRRIEEERLRLEQQKQQIMAALNSQTAVQFQQYAAQQYPGNYEQQQILIRQLQEQHYQQYMQQLYQVQLAQQQAALQKQQEVVVAGSSLPTSSKVNATVPSNMMSVNGQAKTHTDSSEKELEPEAAEEALENGPKESLPVIAAPSMWTRPQIKDFKEKIQQDADSVITVGRGEVVTVRVPTHEEGSYLFWEFATDNYDIGFGVYFEWTDSPNTAVSVHVSESSDDDEEEEENIGCEEKAKKNANKPLLDEIVPVYRRDCHEEVYAGSHQYPGRGVYLLKFDNSYSLWRSKSVYYRVYYTR

# Variants of: B1
# study_conditions: with polg_aiva8 polg
property: effect of a mutation on the interaction

Known results for variants:
sequence_change: S344A;S345A
effect of a mutation on the interaction: with no effect
--
sequence_change: W435A
effect of a mutation on the interaction: with no effect
--
sequence_change: E282A;Q283A;H284A;Y285A
effect of a mutation on the interaction: with no effect
--
sequence_change: Q264A;Q265A;Y266A
effect of a mutation on the interaction: with no effect

Q: Entry under review: H496A . Reported effect of a mutation on the interaction?
Ans: with no effect

Q: Entry V256A;Q257A;F258A : reported effect of a mutation on the interaction = ?
Ans: with no effect

Q: What effect of a mutation on the interaction value was documented for this variant, S511A ?
Ans: with no effect

Q: May I ask what effect of a mutation on the interaction has been recorded for E434A ?
Ans: with no effect

Q: // effect of a mutation on the interaction lookup, key: S513A
Ans: with no effect
